- experimental protocol: Bioassay of I-123-labeled compounds: organ distribution of activity 5 minutes after tail vein injection
- Assay type: in vivo, Female Sprague-Dawley rats
- measurement parameters: rat, in vivo, iv, 5 min
measurement type: Ratio Heart/Blood

compound="O=C(NCCc1ccccc1)c1ccccc1[123I] [Example 9, N-phenethyl-o-iodobenzamide]" measurement_type="Ratio Heart/Blood" val=1.70

(P) NC(=O)c1ccccc1[123I] [Example 2, o-iodobenzamide]
(Q) O=C(NNc1ccccc1)c1ccccc1[123I] [Example 13, o-iodobenzphenylhydrazide]
Parameter check: reported Ratio Heart/Blood is higher for which label, P or Q ? // respond with label for picked entry
P

----------
- experimental protocol: Bioassay of I-123-labeled compounds: organ distribution of activity 5 minutes after tail vein injection
- Format: in vivo, Female Sprague-Dawley rats
- measurement parameters: rat, in vivo, iv, Percent Dose/g. at 5 min., Heart
measurement type: tissue uptake at 5 min (%ID/g)

(I) O=C(NCCc1ccccc1)c1ccccc1[123I] [Example 9, N-phenethyl-o-iodobenzamide]
(II) O=C(NNc1ccccc1)c1ccccc1[123I] [Example 13, o-iodobenzphenylhydrazide]
Parameter check: reported tissue uptake at 5 min is higher for which label, I or II ? // respond with label for picked entry
II
(II: 1.09 %ID/g, I: 0.73 %ID/g)

----------
- experimental protocol: Bioassay of I-123-labeled compounds: organ distribution of activity 5 minutes after tail vein injection
- Assay type: in vivo, Female Sprague-Dawley rats
- measurement parameters: rat, in vivo, iv, Percent Dose/g. at 5 min., Heart
measurement type: tissue uptake at 5 min (%ID/g)

compound="CN(C)C(=O)c1ccccc1[123I] [Example 10, N, N-dimethyl-o-iodobenzamide]" measurement_type="tissue uptake at 5 min" val=1.54
compound="Cc1cccc(C)c1NC(=O)c1ccccc1[123I] [Example 7, o-iodobenz-2,6-xylidide]" measurement_type="tissue uptake at 5 min" val=0.99

(A) NC(=O)c1ccccc1[123I] [Example 2, o-iodobenzamide]
(B) O=C(NCc1ccccc1)c1ccccc1[123I] [Example 8, N-benzyl-o-iodobenzamide]
Which of these two has the smaller recorded tissue uptake at 5 min: A or B ? // respond with label for picked entry
A

----------
- experimental protocol: Bioassay of I-123-labeled compounds: organ distribution of activity 5 minutes after tail vein injection
- Assay type: in vivo, Female Sprague-Dawley rats
- measurement parameters: rat, in vivo, iv, 5 min
measurement type: Percent Dose in Stomach (Percent Dose)

(a) CNC(=O)c1ccccc1[123I] [Example 1, N-methyl-o-iodobenzamide]
(b) CCCCCCCCCCCCCCCCCCNC(=O)c1ccccc1[123I] [Example 5, N-octadecyl-o-iodobenzamide]
Which of these two has the smaller recorded Percent Dose in Stomach: a or b ? // respond with label for picked entry
b

----------
- experimental protocol: Bioassay of I-123-labeled compounds: organ distribution of activity 5 minutes after tail vein injection
- Assay type: in vivo, Female Sprague-Dawley rats
- measurement parameters: rat, in vivo, iv, 5 min
measurement type: Ratio Brain/Blood

Past entries and their recorded results:
molecule="NC(=O)c1ccccc1[123I] [Example 2, o-iodobenzamide]" val=1.28
molecule="CCCCCCNC(=O)c1ccccc1[123I] [Example 3, N-hexyl-o-iodobenzamide]" val=1.05
molecule="CNC(=O)c1ccccc1[123I] [Example 1, N-methyl-o-iodobenzamide]" val=1.21
molecule="CN(C)C(=O)c1ccccc1[123I] [Example 10, N, N-dimethyl-o-iodobenzamide]" val=0.22

(1) Cc1cccc(C)c1NC(=O)c1ccccc1[123I] [Example 7, o-iodobenz-2,6-xylidide]
(2) O=C(NNc1ccccc1)c1ccccc1[123I] [Example 13, o-iodobenzphenylhydrazide]
(3) CCCCCCCCCCCCCCCCCCNC(=O)c1ccccc1[123I] [Example 5, N-octadecyl-o-iodobenzamide]
(4) O=C(NCCc1ccccc1)c1ccccc1[123I] [Example 9, N-phenethyl-o-iodobenzamide]
(5) O=C(NO)c1ccccc1[123I] [Example 14, o-iodobenzohydramic acid]
Order these by Ratio Brain/Blood, descending, and give the full ranking. Your answer should be the labels, listed in the requested order.
4, 1, 5, 2, 3
(4: 1.28, 1: 0.87, 5: 0.57, 2: 0.20, 3: 0.10)

----------
- experimental protocol: Bioassay of I-123-labeled compounds: organ distribution of activity 5 minutes after tail vein injection
- Type: in vivo, Female Sprague-Dawley rats
- measurement parameters: rat, in vivo, iv, 5 min
measurement type: Ratio Heart/Blood

Past entries and their recorded results:
compound="CCCCCCNC(=O)c1ccccc1[123I] [Example 3, N-hexyl-o-iodobenzamide]" measurement_type="Ratio Heart/Blood" val=1.21
compound="CCCCCCCCCCCCCCCCCCNC(=O)c1ccccc1[123I] [Example 5, N-octadecyl-o-iodobenzamide]" measurement_type="Ratio Heart/Blood" val=0.92

(I) NC(=O)CNC(=O)c1ccccc1[123I] [Example 12, o-iodohippuramide]
(II) O=C(NCc1ccccc1)c1ccccc1[123I] [Example 8, N-benzyl-o-iodobenzamide]
Which of these two has the smaller recorded Ratio Heart/Blood: I or II ? // respond with label for picked entry
I
(I: 1.31, II: 2.26)

----------
- experimental protocol: Bioassay of I-123-labeled compounds: organ distribution of activity 5 minutes after tail vein injection
- Assay type: in vivo, Female Sprague-Dawley rats
- measurement parameters: rat, in vivo, iv, 5 min
- Procedure: Bioassays were performed utilizing compounds from the foregoing examples labeled with I-123 in accordance with the method described in Example 18. […] The animals were sacrificed at 5 minutes post injection, the tails discarded and the amount of activity in various organs determined. Each organ was counted at a standardized geometry with a thallium iodide-activated sodium iodide crystal scintillation counter adjusted for the 159 keV emission of I-123. […]
measurement type: Percent Dose in Stomach (Percent Dose)

molecule="NC(=O)CNC(=O)c1ccccc1[123I] [Example 12, o-iodohippuramide]" measurement_type="Percent Dose in Stomach" val=0.83
molecule="Cc1cccc(C)c1NC(=O)c1ccccc1[123I] [Example 7, o-iodobenz-2,6-xylidide]" measurement_type="Percent Dose in Stomach" val=0.82
molecule="O=C(NCCc1ccccc1)c1ccccc1[123I] [Example 9, N-phenethyl-o-iodobenzamide]" measurement_type="Percent Dose in Stomach" val=0.82
molecule="O=C(NCc1ccccc1)c1ccccc1[123I] [Example 8, N-benzyl-o-iodobenzamide]" measurement_type="Percent Dose in Stomach" val=0.88

----------
- experimental protocol: Bioassay of I-123-labeled compounds: organ distribution of activity 5 minutes after tail vein injection
- Assay type: in vivo, Female Sprague-Dawley rats
- measurement parameters: rat, in vivo, iv, i.v. tail vein, 5 min post injection, blood, I-123 label, read-out: Percent Dose/g. at 5 min., Blood
measurement type: tissue uptake at 5 min (%ID/g)
Give just the number in %ID/g; leave the unit off.

Can you share its tissue uptake at 5 min? I mean this compound: O=C(Nc1ccccc1)c1ccccc1[123I] [Example 6, o-iodobenzanilide]
0.93

----------
- experimental protocol: Bioassay of I-123-labeled compounds: organ distribution of activity 5 minutes after tail vein injection
- Type: in vivo, Female Sprague-Dawley rats
- measurement parameters: rat, in vivo, iv, Percent Dose/g. at 5 min., Brain
measurement type: tissue uptake at 5 min (%ID/g)

molecule="CNC(=O)c1ccccc1[123I] [Example 1, N-methyl-o-iodobenzamide]" measurement_type="tissue uptake at 5 min" val=1.04

(A) CN(C)C(=O)c1ccccc1[123I] [Example 10, N, N-dimethyl-o-iodobenzamide]
(B) CCCCCCCCCCCCCCCCCCNC(=O)c1ccccc1[123I] [Example 5, N-octadecyl-o-iodobenzamide]
(C) NC(=O)CNC(=O)c1ccccc1[123I] [Example 12, o-iodohippuramide]
Sort entries by tissue uptake at 5 min from minimum to maximum value. Your answer should be the labels, listed in the requested order.
B, A, C
(B: 0.09 %ID/g, A: 0.48 %ID/g, C: 0.92 %ID/g)

----------
- experimental protocol: Bioassay of I-123-labeled compounds: organ distribution of activity 5 minutes after tail vein injection
- Assay type: in vivo, Female Sprague-Dawley rats
- measurement parameters: rat, in vivo, iv, Percent Dose/g. at 5 min., Brain
measurement type: tissue uptake at 5 min (%ID/g)

compound="O=C(NCCc1ccccc1)c1ccccc1[123I] [Example 9, N-phenethyl-o-iodobenzamide]" measurement_type="tissue uptake at 5 min" unit_of_measurement=%ID/g val=0.54
compound="CCCCCCNC(=O)c1ccccc1[123I] [Example 3, N-hexyl-o-iodobenzamide]" measurement_type="tissue uptake at 5 min" unit_of_measurement=%ID/g val=0.59
compound="Cc1cccc(C)c1NC(=O)c1ccccc1[123I] [Example 7, o-iodobenz-2,6-xylidide]" measurement_type="tissue uptake at 5 min" unit_of_measurement=%ID/g val=0.6

(I) O=C(NNc1ccccc1)c1ccccc1[123I] [Example 13, o-iodobenzphenylhydrazide]
(II) O=C(NCc1ccccc1)c1ccccc1[123I] [Example 8, N-benzyl-o-iodobenzamide]
Parameter check: reported tissue uptake at 5 min is higher for which label, I or II ? // respond with label for picked entry
II
(II: 0.68 %ID/g, I: 0.39 %ID/g)

(1) NC(=O)c1ccccc1[123I] [Example 2, o-iodobenzamide]
(2) O=C(NO)c1ccccc1[123I] [Example 14, o-iodobenzohydramic acid]
Which of these two has the smaller recorded tissue uptake at 5 min: 1 or 2 ? // respond with label for picked entry
2
